- Target Or Test System: endothelin converting enzyme (ECE) (Homo sapiens)
- Construct: ECE was partially purified from EA.hy926 grown in 150 roller; endogenous in cells; host or cells: EA.hy926 (human umbilical vein endothelial cells fused with A549); detergent-solubilised membranes, RCA-I lectin eluate
- Sequence (P42892 whole entry, the tested form may be a part): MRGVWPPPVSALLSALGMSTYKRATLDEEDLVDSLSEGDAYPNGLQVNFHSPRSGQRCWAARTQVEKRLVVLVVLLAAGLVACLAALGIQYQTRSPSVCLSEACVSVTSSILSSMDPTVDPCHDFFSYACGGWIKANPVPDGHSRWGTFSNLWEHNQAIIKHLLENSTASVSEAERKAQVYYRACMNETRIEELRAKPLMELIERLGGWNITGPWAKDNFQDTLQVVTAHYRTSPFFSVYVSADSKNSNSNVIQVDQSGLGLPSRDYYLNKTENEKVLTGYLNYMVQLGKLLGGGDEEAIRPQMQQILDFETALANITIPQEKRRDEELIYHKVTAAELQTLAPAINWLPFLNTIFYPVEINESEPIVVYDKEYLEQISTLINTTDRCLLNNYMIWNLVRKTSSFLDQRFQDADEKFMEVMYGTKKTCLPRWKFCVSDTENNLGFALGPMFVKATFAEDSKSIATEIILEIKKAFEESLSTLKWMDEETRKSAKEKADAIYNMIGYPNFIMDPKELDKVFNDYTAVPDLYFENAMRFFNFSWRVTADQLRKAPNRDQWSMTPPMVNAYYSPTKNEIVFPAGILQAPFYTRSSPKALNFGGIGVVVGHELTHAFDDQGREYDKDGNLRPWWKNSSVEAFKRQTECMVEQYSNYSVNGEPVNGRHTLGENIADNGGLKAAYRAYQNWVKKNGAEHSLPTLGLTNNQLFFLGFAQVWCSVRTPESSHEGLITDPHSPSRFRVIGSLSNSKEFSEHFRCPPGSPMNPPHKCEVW
- Measurement Protocol: ECE assay (partially purified ECE from EA.hy926, ET-1 production by RIA)
- Type: biochemical
- Condition: 10 μM big ET-1, pH 7.0, 1.5 hours at 37° C., 3% DMSO; read-out: IC50 (Table III, Biological Activity of Compounds of the Present Invention)
Structures can show the parent of a compound that is named as a salt.
Reported pIC50 values are given for each entry in this list.
Note: pIC50 values are expressed as the negative base-10 logarithm of concentration in M.

CCN1CCCC(Nc2nc(C(Cl)(Cl)Cl)nc3ccc([N+](=O)[O-])cc23)C1 (stereo not shown) [Example 4] :: 4.54
CN(C)CCNc1nc(C(Cl)(Cl)Cl)nc2ccc(I)cc12 [Example 8] :: 4.95
ClC(Cl)(Cl)c1nc(NCCN2CCCCC2)c2cc(I)ccc2n1 [Example 9] :: 5.43
O=C(O)CN1CCCC(Nc2nc(C(Cl)(Cl)Cl)nc3ccc(I)cc23)C1 (stereo not shown) [Example 14, potassium salt] :: 4.12
CCN1CCCC(Nc2nc(C(C)(C)C)nc3ccc(I)cc23)C1 (stereo not shown) [Example 5] :: 4.75

Sure, the documented pIC50 for CN(C)CC(CN(C)C)Nc1nc(C(Cl)(Cl)Cl)nc2ccc(I)cc12 [Example 16, monohydrochloride] is 5.08

ClC(Cl)(Cl)c1nc(NCCN2CCOCC2)c2cc(I)ccc2n1 [Example 10] yielded pIC50 of 4.60

Briefly, pIC50 measured for CCN1CCCC(Nc2nc(-c3ccccc3)nc3ccc(I)cc23)C1 (stereo not shown) [Example 2] : 5.04

Recorded result, NCCNc1nc(C(Cl)(Cl)Cl)nc2ccc(I)cc12 [Example 6, hydrochloride] , pIC50: 4.53

# molecule CCN1CCCC1CNc1nc(C(Cl)(Cl)Cl)nc2ccc(I)cc12 (stereo not shown) [Example 11] ; its pIC50 = 4.91

Recorded pIC50 (molecule CNCCNc1nc(C(Cl)(Cl)Cl)nc2ccc(I)cc12 [Example 7] ): 4.66

Summary for this molecule, ClC(Cl)(Cl)c1nc(NC2CN3CCC2CC3)c2cc(I)ccc2n1 (stereo not shown) [Example 12] : pIC50 is 4.95

Reported pIC50 of CCN1CCCC(Nc2nc(C(F)(F)F)nc3ccc(I)cc23)C1 (stereo not shown) [Example 17] : 5.64

Notebook: CC(C)N(CCNc1nc(C(Cl)(Cl)Cl)nc2cc(Cl)ccc12)C(C)C [Example 13] , pIC50 read as 4.18

Value of pIC50 reported for the molecule CCN1CCCC(Nc2nc(C(Cl)(Cl)Cl)nc3ccc(Cl)cc23)C1 (stereo not shown) [Example 3] is 4.85

Value of measured pIC50 for the entry CCN1CCCC(Nc2nc(C(Cl)(Cl)Cl)nc3ccc(I)cc23)C1 (stereo not shown) [Example 1, Monohydrochloride] : 5.38
